EXPERIMENTAL DETAILS: Viscosity responsiveness: fluorescence emission spectra of probes in glycerol and methanol
Type: physicochemical
TEST CONTEXT: probe 1×10^−5 M
MEASURED ATTRIBUTE: Fluorescence ratio in glycerol to methanol

Illustrative cases are given below, each with its answer.
>  <COMPOUND>
CN(CCOC(=O)NCc1ccc(COc2nc(N)nc3[nH]cnc23)cc1)c1ccc(-c2ccc(/C=C(\C#N)C(=O)O)s2)s1 [probe 120]

>  <MEASURED NUMBER>
421

$$$$
>  <COMPOUND>
CN(CCOC(=O)NCc1ccc(COc2nc(N)nc3[nH]cnc23)cc1)c1ccc(/C=C(\C#N)C(=O)OC(C)(C)C)cc1 [probe 1]

>  <MEASURED NUMBER>
560

$$$$

A = CN(CCOC(=O)NCc1ccc(COc2nc(N)nc3[nH]cnc23)cc1)c1ccc(/C=C(\C#N)c2nc3ccccc3s2)cc1 [probe 3]
B = CN(CCO)c1ccc(C#C/C=C(\C#N)C(=O)NCc2ccc(COc3nc(N)nc4[nH]cnc34)cc2)cc1 [Reference Probe 110, reference compound]
[ask] # return whichever of A and B has the smaller Fluorescence ratio in glycerol to methanol Reply briefly: the label of your chosen item.
[reply] B

====

// reported Quantum yield of free probe per item
EXPERIMENTAL DETAILS: Fluorescence of free probe prior to binding to a protein tag
Format: physicochemical

Answered cases to consult:
>  <STRUCTURE SMILES STRING>
CN(CCOC(=O)NCc1ccc(COc2nc(N)nc3[nH]cnc23)cc1)c1ccc2cc(/C=C(\C#N)c3nc4ccccc4s3)sc2c1

>  <Quantum yield of free probe>
<0.001

$$$$
>  <STRUCTURE SMILES STRING>
CN(CCOC(=O)NCc1ccc(COc2nc(N)nc3[nH]cnc23)cc1)c1cc2c(s1)-c1sc(/C=C(/C#N)c3nc4ccccc4o3)cc1[Si]2(C)C

>  <Quantum yield of free probe>
0.0021

$$$$

Now consider a different molecule.
[ask] Identify measured Quantum yield of free probe associated with `CC1=CC(C)(C)N(CCOC(=O)NCc2ccc(COc3nc(N)nc4[nH]cnc34)cc2)c2ccc(/C=C(\C#N)C(=O)OC(C)(C)C)cc21`
[reply] <0.001

====

TESTED SYSTEM: SNAP protein tags (Homo sapiens, UniProt P16455, A127T/A154D/C150Q/C62A/E30R/G131K/G132T/G153L/K125A/K32I/L33F/M134L/N157G/Q115S/Q116H/R128A/R135S/S151G/S152D/S159E)
EXPERIMENTAL DETAILS: Fluorescence activation of probe after incubation with corresponding protein tag (SNAP)
Assay type: biochemical
TEST CONTEXT: probe 5 μM, protein tag 10 μM, 37° C., 1 hr
MEASURED ATTRIBUTE: Quantum yield of probe bound to protein tag

>  <STRUCTURE SMILES STRING>
COCCNC(=O)/C(C#N)=C/c1ccc(-c2ccc(N(C)CCOC(=O)NCc3ccc(COc4nc(N)nc5[nH]cnc45)cc3)s2)s1

>  <MEASURED NUMBER>
0.28

$$$$

I = CN(CCOC(=O)NCc1ccc(COc2nc(N)nc3[nH]cnc23)cc1)c1ccc2nc(/C=C(\C#N)C(=O)OC(C)(C)C)sc2c1
II = N#C/C(=C\c1ccc2c(c1)SCCN2CCOC(=O)NCc1ccc(COc2nc(N)nc3[nH]cnc23)cc1)c1nc2ccccc2o1
III = CN(CCOC(=O)NCc1ccc(COc2cc(Cl)nc(N)n2)cc1)c1ccc2nc(/C=C(\C#N)C(=O)OC(C)(C)C)oc2c1
[ask] Task for the reader: rank each entry by its Quantum yield of probe bound to protein tag, from the minimum upward. List the labels in the requested order.
[reply] II, I, III

====

TESTED SYSTEM: SNAP protein tags (Homo sapiens, UniProt P16455, A127T/A154D/C150Q/C62A/E30R/G131K/G132T/G153L/K125A/K32I/L33F/M134L/N157G/Q115S/Q116H/R128A/R135S/S151G/S152D/S159E)
Sequence (P16455 1-182 E30R/K32I/L33F/C62A/Q115S/Q116H/K125A/A127T/R128A/G131K/G132T/M134L/R135S/C150Q/S151G/S152D/G153L/A154D/N157G/S159E): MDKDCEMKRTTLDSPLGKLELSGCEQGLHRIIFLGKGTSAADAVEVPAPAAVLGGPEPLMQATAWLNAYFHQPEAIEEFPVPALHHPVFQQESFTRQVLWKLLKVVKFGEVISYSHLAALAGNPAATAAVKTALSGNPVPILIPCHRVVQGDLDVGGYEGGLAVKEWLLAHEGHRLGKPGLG
EXPERIMENTAL DETAILS: Fluorescence activation of probe after incubation with corresponding protein tag (SNAP)
Type: biochemical
TEST CONTEXT: probe 5 μM, protein tag 10 μM, 37° C., 1 hr
MEASURED ATTRIBUTE: Quantum yield of probe bound to protein tag

>  <MOLECULE>
CN(CCO)c1cc2c(s1)-c1sc(/C=C(/C#N)C(=O)NCc3ccc(COc4nc(N)nc5[nH]cnc45)cc3)cc1C2(C)C [Reference Probe 99, reference compound]

>  <MEASURED NUMBER>
0.01

$$$$
>  <MOLECULE>
CC1=CC(C)(C)N(CCO)c2ccc(/C=C(\C#N)C(=O)NCc3ccc(COc4nc(N)nc5[nH]cnc45)cc3)cc21 [Reference Probe 106, reference compound]

>  <MEASURED NUMBER>
0.01

$$$$
>  <MOLECULE>
CN(C)c1ccc(-c2ccc(/C=C(\C#N)C(=O)NCc3ccc(COc4nc(N)nc5[nH]cnc45)cc3)s2)cc1 [Reference Probe 116, reference compound]

>  <MEASURED NUMBER>
0.01

$$$$

A = CN1C(=O)/C(=C\c2nc3ccc(N(C)CCOC(=O)NCc4ccc(COc5nc(N)nc6[nH]cnc56)cc4)cc3o2)N=C1c1ccccc1 [probe 50]
B = CC(C)(C)OC(=O)/C(C#N)=C/c1cc2ccc(N(CCC#N)CCOC(=O)NCc3ccc(COc4nc(N)nc5[nH]cnc45)cc3)cc2s1 [probe 36]
[ask] Which of the two items, A and B , has the greater recorded Quantum yield of probe bound to protein tag? Indicate your choice by writing its label.
[reply] B

====

Parameter Quantum yield of free probe: see the listing below.
EXPERIMENTAL DETAILS: Fluorescence of free probe prior to binding to a protein tag
Assay type: physicochemical

>  <MOLECULE>
CN(CCOC(=O)NCc1ccc(COc2nc(N)nc3[nH]cnc23)cc1)c1ccc2cc(/C=C(\C#N)C(=O)O)sc2c1 [probe 111]

>  <MEASURED ATTRIBUTE>
Quantum yield of free probe

>  <RESULT>
<0.001

$$$$

[ask] Give a short answer stating reported Quantum yield of free probe for CN(CCOC(=O)NCc1ccc(COc2nccc(N)n2)cc1)c1ccc(/C=C(\C#N)c2nc3ccccc3o2)cc1 [probe 8] .
[reply] 0.0018

[ask] Provide measured Quantum yield of free probe value, entry: CN(CCOC(=O)NCc1ccc(COc2nc(N)nc3[nH]cnc23)cc1)c1ccc(C2=C(C#N)C(=C(C#N)C#N)OC2(C)C)cc1 [probe 18]
[reply] 0.0017

[ask] Determine from records and report Quantum yield of free probe for CN(C)c1ccc(/C=C(\C#N)C(=O)NCc2ccc(COc3nc(N)nc4[nH]cnc34)cc2)cc1 [Reference Probe 100, reference compound]
[reply] <0.001

[ask] For the molecule CN(CCOC(=O)NCc1ccc(COc2cc(Cl)nc(N)n2)cc1)c1ccc(/C=C(\C#N)C(=O)OC(C)(C)C)cc1 [probe 4] , report Quantum yield of free probe.
[reply] <0.001

[ask] Note down Quantum yield of free probe recorded for CN(CCOC(=O)NCc1ccc(COc2nc(N)nc3[nH]cnc23)cc1)c1cc2sc3cc(/C=C(\C#N)c4nc5ccccc5s4)sc3c2s1 [probe 62]
[reply] <0.001

====

TESTED SYSTEM: SNAP protein tags (Homo sapiens, UniProt P16455, A127T/A154D/C150Q/C62A/E30R/G131K/G132T/G153L/K125A/K32I/L33F/M134L/N157G/Q115S/Q116H/R128A/R135S/S151G/S152D/S159E)
Sequence (P16455 1-182 E30R/K32I/L33F/C62A/Q115S/Q116H/K125A/A127T/R128A/G131K/G132T/M134L/R135S/C150Q/S151G/S152D/G153L/A154D/N157G/S159E): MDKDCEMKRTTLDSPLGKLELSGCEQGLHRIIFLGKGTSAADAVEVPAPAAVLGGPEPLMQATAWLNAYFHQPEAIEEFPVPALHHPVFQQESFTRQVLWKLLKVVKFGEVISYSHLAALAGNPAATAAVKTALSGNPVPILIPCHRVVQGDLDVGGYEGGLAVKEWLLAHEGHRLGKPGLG
EXPERIMENTAL DETAILS: Fluorescence activation of probe after incubation with corresponding protein tag (SNAP)
Format: biochemical
TEST CONTEXT: probe 5 μM, protein tag 10 μM, 37° C., 1 hr
Listed below: Quantum yield of probe bound to protein tag values for each entry.
// no unit, no text: just the number

# annotated cases, reported Quantum yield of probe bound to protein tag shown
>  <STRUCTURE SMILES STRING>
COCCNC(=O)/C(C#N)=C/c1ccc(-c2ccc(N(C)CCOC(=O)NCc3ccc(COc4cc(Cl)nc(N)n4)cc3)cc2)s1

>  <MEASURED NUMBER>
0.36

$$$$
>  <STRUCTURE SMILES STRING>
CC1=CC(C)(C)N(CCOC(=O)NCc2ccc(COc3nc(N)nc4[nH]cnc34)cc2)c2ccc(/C=C(\C#N)C(=O)OC(C)(C)C)cc21

>  <MEASURED NUMBER>
0.45

$$$$

[ask] Please report Quantum yield of probe bound to protein tag for the following compound: `CN(CCOC(=O)NCc1ccc(COc2nc(N)nc3[nH]cnc23)cc1)c1cc2sc(/C=C(\C#N)C(=O)OC(C)(C)C)cc2s1`
[reply] 0.48
